- Assay Comment: Gut enzyme digestion, M. sexta gut extract
- Assay type: in vitro ADME, Manduca sexta
- Assay Conditions: M. sexta fifth instar gut extract diluted 10× in 30 mM Tris–HCl pH 8.8; 0.5–1 mg mL^−1 peptide; HPLC; single exponential decay fit; read-out: Degradation half life, Gut extract
Bridges are numbered along the chain shown (N, C = ends). Where no end group is shown, it is not given here.
Assay Readout: half-life

>  <Sequence Record>
EPDEICRAAMTNKEFTYKSNVCNNCGDQVAACEAECFRNDVYTACHEAQKG (disulfide 6-36, 22-32, 25-45) [Mutant R9A]

>  <half-life>
298 min

$$$$
>  <Sequence Record>
EPDEICRARMTNKEFTYKSNVCNNCGDQVAACEAECFANDVYTACHEAQKG (disulfide 6-36, 22-32, 25-45) [Mutant R38A]

>  <half-life>
12.9 min

$$$$

Lab note: next sequence to report on.
Give the measured half-life of EPDEICRARMTNKEFTYKSNVCNNCGDQVAACEAECFRNDVYTACHEAQKG (disulfide 6-36, 22-32, 25-45) [Ta1b] .
1.4 min

---

- Assay Comment: Gut enzyme digestion, H. zea gut extract
- Format: in vitro ADME, Helicoverpa zea
- Assay Conditions: pH 8.8; extract diluted ten-fold, single exponential decay fit, HPLC; read-out: Degradation half-life in H. zea gut extract
Bridges are numbered along the chain shown (N, C = ends). Where no end group is shown, it is not given here.
Assay Readout: half-life
The reply should read as a number followed by its unit.

Give the measured half-life of EPDEICRARMTNKEFTYKSNVCNNCGDQVAACEAECFRNDVYTACHEAQKG (disulfide 6-36, 22-32, 25-45) [Ta1b] .
1.97 h

---

- Study System: bovine trypsin (Bos taurus)
- Construct: purchased Sigma-Aldrich
- Sequence (P00760 24-246): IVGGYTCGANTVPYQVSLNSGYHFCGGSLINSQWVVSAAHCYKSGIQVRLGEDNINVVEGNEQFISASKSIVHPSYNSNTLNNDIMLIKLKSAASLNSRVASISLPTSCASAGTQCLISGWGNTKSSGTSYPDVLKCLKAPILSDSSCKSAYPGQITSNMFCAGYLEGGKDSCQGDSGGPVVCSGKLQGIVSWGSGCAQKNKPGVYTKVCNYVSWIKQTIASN
- Assay Comment: Protease stability, commercial trypsin digestion
- Assay type: in vitro ADME
- Assay Conditions: ratio of half lives with bovine trypsin
Bridges are numbered along the chain shown (N, C = ends). Where no end group is shown, it is not given here.
Assay Readout: Degradation half time ratio to Ta1b, Trypsin
Keep the answer to the number alone.

>  <Sequence Record>
EPDEICAARMTNKEFTYKSNVCNNCGDQVAACEAECFRNDVYTACHEAQKG (disulfide 6-36, 22-32, 25-45) [Mutant R7A]

>  <Study System>
bovine trypsin (Bos taurus)

>  <Value Observed>
0.5

$$$$
>  <Sequence Record>
EPDEICRARMTNKEFTYASNVCNNCGDQVAACEAECFRNDVYTACHEAQKG (disulfide 6-36, 22-32, 25-45) [Mutant K18A]

>  <Study System>
bovine trypsin (Bos taurus)

>  <Value Observed>
4.1

$$$$
>  <Sequence Record>
EPDEICRARMTNAEFTYKSNVCNNCGDQVAACEAECFRNDVYTACHEAQKG (disulfide 6-36, 22-32, 25-45) [Mutant K13A]

>  <Study System>
bovine trypsin (Bos taurus)

>  <Value Observed>
1.0

$$$$

Query Degradation half time ratio to Ta1b, Trypsin on bovine trypsin (Bos taurus) for EPDEICRARMTNKEFTYKSNVCNNCGDQVAACEAECFANDVYTACHEAQKG (disulfide 6-36, 22-32, 25-45) [Mutant R38A]
6.5
